System: NOMO1
PROTOCOL DESCRIPTION: cell viability relative to DMSO control; higher = less cytotoxic
ASSAY CONDITIONS: HPLM + 10% dialyzed FBS; 48 h; 0.00234 µM
MEASUREMENT LABEL: cell viability (%)
Numeric only. Scale: %

Sample records with cell viability:
>  <MOLECULE>
OC[C@H]1O[C@@H](O[C@@H]2[C@@H](CO)O[C@](O)(CO)[C@H]2O)[C@H](O)[C@@H](O)[C@H]1O

>  <TARGET ENTITY>
NOMO1

>  <cell viability / %>
110

$$$$
>  <MOLECULE>
CN(CC#C)C/C1=C/C2=CC=CC=C2OC3=CC=CC=C13

>  <TARGET ENTITY>
NOMO1

>  <cell viability / %>
98.5

$$$$
>  <MOLECULE>
CCC(C)SSc1ncc[nH]1 (stereo unspecified)

>  <TARGET ENTITY>
NOMO1

>  <cell viability / %>
85.5

$$$$
>  <MOLECULE>
COc1nccc(-c2c(-c3ccc(F)cc3)ncn2C2CCNCC2)n1

>  <TARGET ENTITY>
NOMO1

>  <cell viability / %>
121

$$$$
>  <MOLECULE>
c1cncc(CN2CCC(n3ncc4c(N5CCOCC5)nc(-c5ccc6[nH]ccc6c5)nc43)CC2)c1

>  <TARGET ENTITY>
NOMO1

>  <cell viability / %>
107

$$$$
>  <MOLECULE>
CN1[C@@H]2CC(OC(=O)[C@@H](CO)c3ccccc3)C[C@H]1[C@H]1O[C@H]12 (stereo partly specified)

>  <TARGET ENTITY>
NOMO1

>  <cell viability / %>
120

$$$$
>  <MOLECULE>
CC1(C)Cc2c(-c3ccccc3)c(-c3ccc(Cl)cc3)c(CC(=O)O)n2C1

>  <TARGET ENTITY>
NOMO1

>  <cell viability / %>
106

$$$$
>  <MOLECULE>
C\C1=C\C(=O)OC2=C1C=CC(=C2)O

>  <TARGET ENTITY>
NOMO1

>  <cell viability / %>
129

$$$$
>  <MOLECULE>
CC[C@H](CC#N)OC(=O)N[C@@H](C)c1cccc(NC(=O)Nc2ccc(-c3cnco3)c(OC)c2)c1

>  <TARGET ENTITY>
NOMO1

>  <cell viability / %>
114

$$$$
>  <MOLECULE>
CC(C)n1nc(-c2cc3cc(O)ccc3[nH]2)c2c(N)ncnc21

>  <TARGET ENTITY>
NOMO1

>  <cell viability / %>
124

$$$$

Q: Look up cell viability for this molecule: COC1=C(N2CCNC(C)C2)C(=CC3=C1N(\C=C(C(O)=O)/C3=O)C4CC4)F (stereo unspecified)
A: 82.7

Q: Let us now turn to COC1=CC2=NC=CC(=C2C=C1)OC3=CN=C(NC(=O)C/4=C(C)/N(CC(C)(C)O)N(C4=O)C5=CC=CC=C5)C=C3
A: 87.4

Q: // repeat for C/C=C1\NC(=O)[C@H]2CSSCC/C=C\[C@H](CC(=O)N[C@H](C(C)C)C(=O)N2)OC(=O)[C@H](C(C)C)NC1=O and report
A: 119

Q: Next molecule up: CC1(C)O[C@@H]2C[C@H]3[C@@H]4CCC5=CC(=O)C=C[C@]5(C)[C@@]4(F)[C@@H](O)C[C@]3(C)[C@]2(C(=O)CO)O1
A: 119

Q: Same for CC1CCC(C(=O)N(c2cc(C#CC(C)(C)C)sc2C(=O)O)C2CCC(O)CC2)CC1 (stereo unspecified)
A: 98.7

Q: Same thing, different molecule: CC(=O)O.Cc1c(-c2ccc(O)cc2)n(Cc2ccc(OCCN3CCCCCC3)cc2)c2ccc(O)cc12
A: 106

====

Test system: NOMO1
PROTOCOL DESCRIPTION: cell viability relative to DMSO control; higher = less cytotoxic
ASSAY CONDITIONS: HPLM + 10% dialyzed FBS; 48 h; 0.569 µM
In this section we review reported cell viability values for a set of molecules.
Give a bare numeral; the unit % is implied.

>  <MOLECULE>
CCC1(C)CC(=O)NC1=O (centres undefined)

>  <TARGET ENTITY>
NOMO1

>  <cell viability / %>
104

$$$$
>  <MOLECULE>
NC(=O)c1cnc(N[C@@H]2CCCC[C@@H]2N)nc1Nc1cccc(-n2nccn2)c1

>  <TARGET ENTITY>
NOMO1

>  <cell viability / %>
154

$$$$
>  <MOLECULE>
COc1ccc(CC2NCCc3cc(OC)c(OC)cc32)cc1OC (centres undefined)

>  <TARGET ENTITY>
NOMO1

>  <cell viability / %>
91.6

$$$$
>  <MOLECULE>
CC(C)NCC(O)COc1ccc(COCCOC(C)C)cc1 (centres undefined)

>  <TARGET ENTITY>
NOMO1

>  <cell viability / %>
118

$$$$
>  <MOLECULE>
CC(=O)Oc1ccccc1C(=O)O

>  <TARGET ENTITY>
NOMO1

>  <cell viability / %>
107

$$$$
>  <MOLECULE>
CN[S+](=O)([O-])Cc1ccc2[nH]cc(CCN(C)C)c2c1

>  <TARGET ENTITY>
NOMO1

>  <cell viability / %>
148

$$$$
>  <MOLECULE>
C/C=C1\NC(=O)[C@H]2CSSCC/C=C\[C@H](CC(=O)N[C@H](C(C)C)C(=O)N2)OC(=O)[C@H](C(C)C)NC1=O

>  <TARGET ENTITY>
NOMO1

>  <cell viability / %>
4.81

$$$$
>  <MOLECULE>
C=C(C)[C@@H]1CC[C@]2(C(=O)O)CC[C@]3(C)[C@H](CC[C@@H]4[C@@]5(C)CC[C@H](O)C(C)(C)[C@@H]5CC[C@]43C)[C@@H]12

>  <TARGET ENTITY>
NOMO1

>  <cell viability / %>
118

$$$$

Then this molecule:
Q: What value of cell viability has been reported for the following molecule? CN1[C@@H]2CC(OC(=O)[C@@H](CO)c3ccccc3)C[C@H]1[C@H]1O[C@H]12 (some centres undefined)
A: 106

====

Readings of cell viability for the listed molecules
System: P12-Ichikawa
PROTOCOL DESCRIPTION: cell viability relative to DMSO control; higher = less cytotoxic
ASSAY CONDITIONS: RPMI 5 mM glucose + 10% dialyzed FBS; 48 h; 0.000781 µM
Write it as a number; the unit % goes unstated.

Examples with answers:
>  <MOLECULE>
C[C@@H](NC1=CC=CC=C1C(O)=O)C/2=C/C(=C\N3C(=O)/C=C(\N=C23)N4CCOCC4)C

>  <TARGET ENTITY>
P12-Ichikawa

>  <cell viability / %>
77.7

$$$$
>  <MOLECULE>
OC(=O)C1=CC=C(NC2=NC3=C(C\N=C(/C4=CC(=CC=C34)Cl)C5=C(F)C=CC=C5F)C=N2)C=C1

>  <TARGET ENTITY>
P12-Ichikawa

>  <cell viability / %>
98.1

$$$$

Q: For CC1(C)CC(=O)c2c(C(F)(F)F)nn(-c3ccc(C(N)=O)c(NC4CCC(O)CC4)c3)c2C1 (stereo not drawn) , what is its reported cell viability?
A: 84.2

Q: Request: C/C=C(/C)C(=O)O[C@H]1C(C)=C2[C@H]([C@@H]1OC(=O)CCCCCCC)[C@@](C)(OC(C)=O)C[C@H](OC(=O)CCC)[C@@]1(O)[C@H]2OC(=O)[C@@]1(C)O
A: 109

Q: Now consider COC1=NC(=NC(=C1N\C2=N\CCN2)Cl)C .
A: 83.3

Q: Also need CCC[C@H](NC(=O)/C(C#N)=C/c1cccc(Br)n1)c1ccccc1 , thanks.
A: 116

Q: And for CC(NC1=CC=CC=C1)C\2=C\C(=C/N3C(=O)\C=C(/N=C23)N4CCOCC4)C (stereo not drawn) ?
A: 88.6

Q: Follow-up item: CCCCn1c(=O)n(Cc2ccccc2F)c(=O)c2nc(Cc3ccc(NC(C)=O)cc3)[nH]c21
A: 88.2

====

System: NOMO1
PROTOCOL DESCRIPTION: AUC of viability dose-response curve (% viability x log10 dose units); higher = less sensitive
ASSAY CONDITIONS: HPLM + 10% dialyzed FBS; 48 h
AUC of viability dose-response curve reference
Write the value as a bare number.

Q: Form field: reported AUC of viability dose-response curve of O=C(NOCC(O)CO)c1cc(Br)c(F)c(F)c1Nc1ccc(I)cc1F (centres undefined)
A: 238

Q: Then this compound: O=c1c(-c2ccc(O)cc2)coc2cc(O[C@@H]3O[C@H](CO)[C@@H](O)[C@H](O)[C@H]3O)ccc12
A: 456

Q: CC(NC1=CC=CC=C1)C\2=C\C(=C/N3C(=O)\C=C(/N=C23)N4CCOCC4)C (centres undefined) , same question.
A: 466

Q: For CC/C(=C(/c1ccc(O)cc1)c1ccc(OCCNC)cc1)c1ccccc1 then?
A: 443

Q: Now consider ClC1=C(N\C2=N\CCN2)C3=NSN=C3C=C1 and answer again.
A: 434

Q: Also check OC1=CC=C(C=C1)\C2=C\OC3=C(C=CC(=C3)O)C2=O
A: 473

Q: Try O=C(NCC[S+](=O)([O-])c1ccc(C(F)(F)F)cn1)c1ccc(Cl)cc1 next.
A: 457

Q: Continue with COc1ccc(CC2NCCc3cc(OC)c(OC)cc32)cc1OC (centres undefined)
A: 451

Taken from the supplement of paper PMC11451515.
